Cited source: patent US8263642B2

- Test system: hrtAB-driven expression of the xylE reporter gene
- MEASUREMENT DESCRIPTION: XylE reporter assay (hrtAB promoter-xylE), Newman
- Type: cell-based, Staphylococcus aureus
- RECORDED CONDITIONS: level of XylE induction at 50.0 uM of the compound
Output MET for XylE (50.0) not less than 0.08; output NOT MET otherwise.

Recorded results for 2 compounds are shown here.
{"COMPOUND": "Cc1ccc(NS(=O)(=O)c2ccc3c(c2)Cc2cc(S(=O)(=O)Nc4ccc(C)cc4)ccc2-3)cc1 [drawing 74]", "QUALITATIVE LABEL": "MET"}
{"COMPOUND": "Cc1ccc(O)c(NC(=O)c2nn3c(c2Br)NC(c2ccco2)CC3C(F)(F)F)c1 (stereo not shown) [drawing 29]", "QUALITATIVE LABEL": "MET"}

Test whether the compound "COC(NC(=O)Nc1nc2ccccc2s1)(C(F)(F)F)C(F)(F)F" records XylE (50.0) of 0.08 or higher.
MET

Is it the case that COc1ccc(Br)cc1C(=O)NC(=S)Nc1cc(C)c(C)cc1O [drawing 24] has XylE (50.0) reaching or exceeding 0.08?
MET

Check if XylE (50.0) >= 0.08 (inclusive). Item: "CCN(CC)S(=O)(=O)c1cc(C(=O)NC2CCCCCC2)ccc1Cl"
NOT MET

// inclusive: XylE (50.0) at least 0.08? input: CC(/C=N/NC(=O)C1COc2ccccc2O1)=C\c1ccccc1 (stereo not shown)
NOT MET

Could you tell me if the measured XylE (50.0) of "CC1(C)CC(=O)C(=CNCc2ccc(F)cc2)C(=O)C1" reaches 0.08 or more?
NOT MET

Answer whether XylE (50.0) of "Fc1ccc(CNC(=S)Nc2ccc(Oc3ccccc3)cc2)cc1" is greater than or equal to 0.08.
MET

* * *

- Test system: hrtAB-driven expression of the xylE reporter gene
- MEASUREMENT DESCRIPTION: XylE reporter assay (hrtAB promoter-xylE), Newman
- Format: cell-based, Staphylococcus aureus
- RECORDED CONDITIONS: level of XylE induction at 50.0 uM of the compound
- Description: With reference to Table 1, “Luminescence” refers to the raw luminescence value obtained in a luminomter. “Control (82.5 nm)” refers to the luminescence value obtained from heme at 82.5 nM as a positive control in the same plate as the experimental. “% lum” is the percentage of luminescence induced by the compound as compared to the heme control in the same plate. […] All of these assays are described in the application. […] “N/T” indicates the test was not performed. […]
Overview of reported XylE (50.0) across a group of compounds:
Write the number on its own, no unit after it.

{"COMPOUND": "CSc1ccc(NC=C2C(=O)CC(C)(C)CC2=O)cc1", "MEASURED ON": "hrtAB-driven expression of the xylE reporter gene", "XylE (50.0)": 1}
{"COMPOUND": "O=[N+]([O-])c1ccc(O)c(C2NN=C(Cc3ccccc3)S2)c1 (stereo not drawn)", "MEASURED ON": "hrtAB-driven expression of the xylE reporter gene", "XylE (50.0)": 1}
{"COMPOUND": "C=CCc1ccccc1Oc1ccc(C(F)(F)F)cn1", "MEASURED ON": "hrtAB-driven expression of the xylE reporter gene", "XylE (50.0)": 0.09}
{"COMPOUND": "COc1ccc(OC(=O)c2ccc(N3C(=O)C4C5CCC(C5)C4C3=O)cc2)cc1 (stereo not drawn)", "MEASURED ON": "hrtAB-driven expression of the xylE reporter gene", "XylE (50.0)": 0.02}
{"COMPOUND": "O=C(Nc1ccc(NC(=O)c2ccccc2)c(Cl)c1)c1ccccc1", "MEASURED ON": "hrtAB-driven expression of the xylE reporter gene", "XylE (50.0)": 0.02}

Form: compound = Oc1ccc(CCNC2CCCc3c2[nH]c2ccc(-c4ccccc4)cc32)cc1 (stereo not drawn) ; XylE (50.0) = 1

Briefly, XylE (50.0) measured for "O=C(Nc1c2c(nn1-c1ccc(Cl)cc1)CSC2)c1cccc(C(F)(F)F)c1" : 0.06

According to the records, this compound Oc1c(-c2cc(-c3ccco3)[nH]n2)ccc2ccccc12 [drawing 25] displays XylE (50.0) of 1000

Just so you know, measured XylE (50.0) for "COc1ccc(CN2CCCN(C)CC2)c(C)c1C" came out at 1

XylE (50.0) for "Brc1ccc2[nH]cc(-c3nc(-c4ccccc4)c(-c4ccccc4)[nH]3)c2c1" is 1

* * *

- System: hrtAB-driven expression of the xylE reporter gene
- MEASUREMENT DESCRIPTION: XylE reporter assay (hrtAB promoter-xylE), Newman
- Format: cell-based, Staphylococcus aureus
- RECORDED CONDITIONS: level of XylE induction at 0.5 uM of the compound
Hi all, reminder that labels come from XylE (0.5), split as zone 1: < 0.04; zone 2: ≥ 0.04 and < 0.1; zone 3: ≥ 0.1

{"COMPOUND": "Brc1ccc(CN2CCN(c3ccccc3)CC2)o1", "QUALITATIVE LABEL": "zone 2"}
{"COMPOUND": "O=C(Nc1ccncc1)c1ccc(COc2cc(Cl)ccc2Cl)cc1", "QUALITATIVE LABEL": "zone 3"}
{"COMPOUND": "NS(=O)(=O)c1ccc(NC(=O)CCCOc2ccc(Cl)cc2Cl)cc1", "QUALITATIVE LABEL": "zone 2"}
{"COMPOUND": "O=C(Nc1ccc(NC(=O)c2cccs2)c(Cl)c1)c1cccs1", "QUALITATIVE LABEL": "zone 2"}
{"COMPOUND": "C=CCc1ccccc1Oc1ccc(C(F)(F)F)cn1", "QUALITATIVE LABEL": "zone 1"}

Band of O=C(NC(=S)Nc1ccc(-c2nc3ccccc3s2)cc1)c1ccccc1[N+](=O)[O-] [drawing 61] ?
zone 3

Bin this entry: "CC(C)(C)c1ccc(O)c(NC(=S)NC(=O)c2cc3ccccc3o2)c1"
zone 3

// bin(item) where item = "COc1cccc(-c2cc(C(=O)Nc3ccccc3C(F)(F)F)c3ccccc3n2)c1"
zone 1

Pick a category. Item: "O=C(Nc1c2c(nn1-c1ccc(Cl)cc1)CSC2)c1cccc(C(F)(F)F)c1"
zone 1

* * *

- System: hrtAB-driven expression of the xylE reporter gene
- MEASUREMENT DESCRIPTION: XylE reporter assay (hrtAB promoter-xylE), Newman
- Assay type: cell-based, Staphylococcus aureus
- RECORDED CONDITIONS: level of XylE induction at 0.5 uM of the compound
PROPERTY NAME: XylE (0.5)

Use the examples below as a reference point.
{"COMPOUND": "O=C1c2ccccc2C(=O)C1C1=NNC(c2ccccc2)C1 (centres unmarked)", "XylE (0.5)": 0.06}
{"COMPOUND": "Cc1nc(Nc2ccc(Oc3ccccc3)cc2)c2c(C)c(C)sc2n1", "XylE (0.5)": 0.6}
{"COMPOUND": "COc1ccc(/C=C/c2nc3ccccc3c(=O)n2-c2cccc(C(=O)O)c2)cc1", "XylE (0.5)": 0.04}
{"COMPOUND": "O=C(Nc1ccc(/N=N/c2ccccc2)cc1)c1cccnc1", "XylE (0.5)": 1}
{"COMPOUND": "COc1ccccc1-c1csc(NC(=O)c2ccc(-c3ccccc3)cc2)n1", "XylE (0.5)": 0.05}
{"COMPOUND": "COc1ccc(-c2cc(-c3ccc(OC)cc3O)n[nH]2)cc1", "XylE (0.5)": 0.02}
{"COMPOUND": "CC1(C)CC(=O)C(=CNCc2ccc(F)cc2)C(=O)C1", "XylE (0.5)": 0.09}
{"COMPOUND": "COc1ccc(-c2cc(-c3ccc(C)cc3)[nH]n2)c(O)c1", "XylE (0.5)": 0.02}
{"COMPOUND": "COc1ccccc1NC1=C/C(=N\\S(=O)(=O)c2ccc(Br)cc2)c2ccccc2C1=O [drawing 81]", "XylE (0.5)": 1}
{"COMPOUND": "COc1ccc(/N=c2\\nc(-c3ccccc3)n(-c3ccc(C)cc3)s2)cc1", "XylE (0.5)": 0.04}

Now consider a different compound.
Observed XylE (0.5) on hrtAB-driven expression of the xylE reporter gene, entry "COc1ccc(C(=O)Nc2sc(-c3ccccc3)cc2C(N)=O)cc1" , equals 0.09

* * *

- System: response regulator HssR
- MEASUREMENT DESCRIPTION: HssR dependence of XylE inducing activity, Newman
- Assay type: cell-based, Staphylococcus aureus
- RECORDED CONDITIONS: whether XylE inducing activity requires HssR
PROPERTY NAME: HssR Dep

Recorded results for 10 compounds are shown here.
{"COMPOUND": "c1ccc(-c2ccc(CSc3nc4ccccc4[nH]3)cc2)cc1", "MEASURED ON": "response regulator HssR", "PROPERTY NAME": "HssR Dep", "VAL": "+"}
{"COMPOUND": "CCOC(=O)c1c(NC(=O)c2ccccc2)sc(C(C)=O)c1-c1ccccc1", "MEASURED ON": "response regulator HssR", "PROPERTY NAME": "HssR Dep", "VAL": "−"}
{"COMPOUND": "O=C(O)C1CSC(c2cccnc2)=N1 (centres unmarked)", "MEASURED ON": "response regulator HssR", "PROPERTY NAME": "HssR Dep", "VAL": "−"}
{"COMPOUND": "CCCN1C(=O)/C(=C2/C(=O)N(CC(=O)Nc3ccc(Cl)cc3)c3ccccc32)SC1=S [drawing 28]", "MEASURED ON": "response regulator HssR", "PROPERTY NAME": "HssR Dep", "VAL": "−"}
{"COMPOUND": "CCCN1C(=O)/C(=C2/C(=O)N(CC(=O)Nc3ccc(Cl)cc3)c3ccccc32)SC1=S [drawing 67]", "MEASURED ON": "response regulator HssR", "PROPERTY NAME": "HssR Dep", "VAL": "+"}
{"COMPOUND": "Cc1ccc(O)c(NC(=O)c2nn3c(c2Br)NC(c2ccco2)CC3C(F)(F)F)c1 (centres unmarked) [drawing 29]", "MEASURED ON": "response regulator HssR", "PROPERTY NAME": "HssR Dep", "VAL": "+"}
{"COMPOUND": "Cc1cccc(C(=O)Nc2ccc(-c3nc4ccccc4o3)cc2)c1 [drawing 43]", "MEASURED ON": "response regulator HssR", "PROPERTY NAME": "HssR Dep", "VAL": "+"}
{"COMPOUND": "COc1ccc(CCNC(=O)C(=O)Nc2cccc(Cl)c2)cc1OC", "MEASURED ON": "response regulator HssR", "PROPERTY NAME": "HssR Dep", "VAL": "−"}
{"COMPOUND": "Fc1ccc(CNC(=S)Nc2ccc(Oc3ccccc3)cc2)cc1", "MEASURED ON": "response regulator HssR", "PROPERTY NAME": "HssR Dep", "VAL": "+"}
{"COMPOUND": "Cc1ccc(NS(=O)(=O)c2ccc3c(c2)Cc2cc(S(=O)(=O)Nc4ccc(C)cc4)ccc2-3)cc1 [drawing 74]", "MEASURED ON": "response regulator HssR", "PROPERTY NAME": "HssR Dep", "VAL": "+"}

# compound COc1ccc(Br)cc1C(=O)NC(=S)Nc1cc(C)c(C)cc1O [drawing 63] ; its HssR Dep = +

Field HssR Dep (entry "CC(C)(C)c1ccc(O)c(NC(=S)NC(=O)c2cc3ccccc3o2)c1" ) reads +

"COc1ccc(-c2cc(-c3ccc(C)cc3)[nH]n2)c(O)c1" yielded HssR Dep of +

Sure, the documented HssR Dep for "COc1ccc(C(=O)Nc2sc(-c3ccccc3)cc2C(N)=O)cc1" is +

Reported HssR Dep for "Cc1ccc(-c2nnc(SCC(=O)NC3CCCC3)nc2-c2ccc(C)cc2)cc1" was −

// field: HssR Dep; key: "Cc1ccc(CSCc2ccc(C(=O)NCc3ccc(F)cc3)o2)cc1" ; value = +

HssR Dep for O=C(N/N=C/c1ccc(-c2ccc(Br)cc2)o1)C1COc2ccccc2O1 (centres unmarked) [drawing 48] is +

GET /value?item= "COc1ccc(-c2cc(-c3ccc(OC)cc3O)n[nH]2)cc1" &field=HssR Dep returns +

The recorded HssR Dep for entry "Cc1nc(Nc2ccc(Oc3ccccc3)cc2)c2c(C)c(C)sc2n1" equals −

Short answer for COc1ccccc1NC1=C/C(=N\S(=O)(=O)c2ccc(Br)cc2)c2ccccc2C1=O [drawing 81] : HssR Dep was +
